Data origin: PubChem BioAssay (NCI)

# protocol-notes: NCI Yeast Anticancer Drug Screen. Data for the cln2 rad14 strain (AID 165);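 also: 0% = growth equal to vehicle treated cultures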
# conditions-used: S. cerevisiae cln2 rad14 strain, at 50.0 µM (retest, dose inferred, filed as 5.0), hits give high values
This is part of a sample that, as a whole, favours compounds with a hit. Of some 79,000 tested, about 15% had one in any assay.
parameter: growth inhibition (%)
Unit % implied. Number only.

Worked cases, answers included:
{"columns": ["compound", "recorded-value"],
 "data": [
  ["COC(=O)[C@@H](O)[C@]1(C(=O)OC)C2O[C@@H](OC)[C@@H]1CCCCCC[C@H]2O", 29],
  ["Nc1cc(Cl)c2c(c1)Cc1ccccc1-2", 94],
  ["Brc1ccc2[nH]c3ccccc3c2c1", 65],
  ["CCN1C2=NC(=O)N(C)C(=O)C2(Cl)C(C(SC)S(=O)(=O)c2ccc(C)cc2)c2ccccc21 (stereo not drawn)", 18],
  ["OC(/C=C/c1ccccc1)(c1ccccc1)c1nc2ccccc2s1 (stereo not drawn)", 93]
]}

INPUT: I'd like to know its growth inhibition. The compound in question is O=C1CN(CCN2CCOCC2)CC(=O)N2CCCCN12
OUTPUT: 2

INPUT: I'd like to know its growth inhibition. The compound in question is CC(C)CCCOC(=O)c1cc([N+](=O)[O-])cc([N+](=O)[O-])c1
OUTPUT: 25

INPUT: I'd like to know its growth inhibition. The compound in question is CCCCCCCC(CC(=O)O)OC(=O)CC(CCCCCCC)OC1OC(C)C(O)C(O)C1OC1OC(C)C(O)C(O)C1O (stereo not drawn)
OUTPUT: 37

INPUT: I'd like to know its growth inhibition. The compound in question is NC(=O)N/N=C/C(O)C(O)C(O)C(O)CO (stereo not drawn)
OUTPUT: 26

INPUT: I'd like to know its growth inhibition. The compound in question is CCCCCCCCCCCCNC(=O)C[n+]1cccc(C(=O)N(C)C)c1
OUTPUT: 13

INPUT: I'd like to know its growth inhibition. The compound in question is CCCCCCCCCCCC(=O)Oc1c(Cl)c(Cl)c(C#N)c(Cl)c1Cl
OUTPUT: -1

INPUT: I'd like to know its growth inhibition. The compound in question is Oc1ccc(CC2CCC(O)CC2)cc1 (stereo not drawn)
OUTPUT: -43

INPUT: I'd like to know its growth inhibition. The compound in question is NCCCNCc1c2ccccc2c(CNCCCN)c2ccccc12
OUTPUT: 24

INPUT: I'd like to know its growth inhibition. The compound in question is COC(=O)C(=[N+]=[N-])C(=O)c1ccc(Cl)cc1
OUTPUT: 19

INPUT: I'd like to know its growth inhibition. The compound in question is O=[N+]([O-])C1=Cc2ccccc2S(=O)(=O)CC1
OUTPUT: 83

INPUT: I'd like to know its growth inhibition. The compound in question is CNCC(OB(c1ccccc1)c1ccccc1)c1ccccc1 (stereo not drawn)
OUTPUT: 99

INPUT: I'd like to know its growth inhibition. The compound in question is COc1ccc(C2SC(C)C(=O)N2c2nc(-c3nc(-c4ccc(Cl)cc4)cs3)cs2)cc1 (stereo not drawn)
OUTPUT: 99

INPUT: I'd like to know its growth inhibition. The compound in question is CCCCCCCCCCCC[N+]1(C)CCCC1c1cccnc1 (stereo not drawn)
OUTPUT: 98

INPUT: I'd like to know its growth inhibition. The compound in question is C1=NC2c3ccccc3Cc3cccc1c32 (stereo not drawn)
OUTPUT: 96

INPUT: I'd like to know its growth inhibition. The compound in question is CC(C)=CN(C)C (tested in a mixture with another compound)
OUTPUT: 97

INPUT: I'd like to know its growth inhibition. The compound in question is O=S(=O)(Sc1ccccc1)C(c1ccccc1)c1ccccc1
OUTPUT: 28

INPUT: I'd like to know its growth inhibition. The compound in question is CCN(CC)CC(O)CNc1ccc(NCC(O)CCl)c2c1C(=O)c1ccccc1C2=O (stereo not drawn)
OUTPUT: 97

INPUT: I'd like to know its growth inhibition. The compound in question is CC(C)SC(=S)S(=O)(=O)c1ccc(Cl)cc1
OUTPUT: 63
